Hello, the source for this data is ChEMBL document CHEMBL1156597, in case you need it.

Test system: SK-BR-3
Assay explanation: Cytotoxicity against human SKBR3 cells after 48 hrs by SRB assay
Assay type: functional
Applied conditions: SK-BR-3, 48 h, read-out: LC50 (the source's name)
Reported CC50 values for the following molecules.
Please state the figure in nM; there is no need to write the unit.

C/C=C1\NC(=O)[C@H](Cc2ccccc2)NC(=O)[C@@H](C(C)C)NC(=O)[C@@H]([C@H](C)CC)NC(=O)[C@H](NC(=O)[C@H](NC(=O)[C@H](CCCNC(=O)CCCC[C@@H]2SC[C@@H]3NC(=O)N[C@@H]32)NC(=O)[C@H]2CCCN2C(=O)[C@H](NC(=O)[C@@H](NC(=O)[C@@H](NC(=O)[C@H](NC(=O)CCCC(C)C)C(C)C)[C@@H](C)O)C(C)C)C(C)C)[C@H](C)CC)[C@H](C)OC(=O)[C@H](C(C)C)NC1=O = 90.5

Turning to the following molecule.
IN: Output reported CC50 of the molecule C/C=C1\NC(=O)[C@H](Cc2ccccc2)NC(=O)[C@@H](C(C)C)NC(=O)[C@@H]([C@H](C)CC)NC(=O)[C@H](NC(=O)[C@H](NC(=O)[C@H](CCCN)NC(=O)[C@H]2CCCN2C(=O)[C@H](NC(=O)[C@@H](NC(=O)[C@@H](NC(=O)[C@H](NC(=O)CC[C@@H](C)[C@H]2CC[C@H]3[C@@H]4CC[C@@H]5C[C@H](OC(=O)C(F)(F)F)CC[C@]5(C)[C@H]4CC[C@]23C)C(C)C)[C@@H](C)O)C(C)C)C(C)C)[C@H](C)CC)[C@H](C)OC(=O)[C@H](C(C)C)NC1=O on SK-BR-3.
OUT: 233
